Entries and their Kd values follow.
- target.entity: T1, human TIGIT protein (human, UniProt Q495A1 22-141, limits assumed)
- T1 construct: Recombinant protein (Genentech) used in ELISA screening and as SPR analyte; also called TIGIT antigen
- T1 sequence: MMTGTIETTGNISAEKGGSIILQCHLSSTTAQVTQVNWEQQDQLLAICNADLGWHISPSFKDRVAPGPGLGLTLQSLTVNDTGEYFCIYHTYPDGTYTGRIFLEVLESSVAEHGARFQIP
- assay.protocol: SPR, captured mAb

A selection of reference data follows.
binder: rat6B2 (antibody, V domains shown, SD rat-derived; rat V domains as FR/HVR pieces; also called 1.6B2; Chimeric 1.6B2) VH: QVSLKESGPGILQPSHTLSLTCSFSGFSLSTYGMGVSWIRQPSEKGLEWLASIWWNGNTYYNPSLKSRLTVSKDASNDQAFLNVTSVDTTDTATYYCAHTGGAVITWFAYWGQGTLVTVSS VL: NIVMTQSPKSMSISVGDRVTMNCKASQSVGKNIAWYQQKPGQSPKLLIYYASNRYTGVPDRFTGGGSGTDFTLTINTVQAEDAAFFYCQHIYNSPYPFGTGTKLEIK
Kd: 0.04 nM
--
binder: h7E7.L1H4 (antibody, V domains shown, VH: A67V against h7E7.L1H1; FR/HVR pieces) VH: EVQLVQSGAEVKKPGASVKVSCKASGYTFTEYSIYWVRQAPGQRLEIIGRIDPKNGRTYYVDKFKNRVTLTADTSASTAYMELSSLRSEDTAVYFCTRIYGFYFDFWGQGTLVTVSS VL: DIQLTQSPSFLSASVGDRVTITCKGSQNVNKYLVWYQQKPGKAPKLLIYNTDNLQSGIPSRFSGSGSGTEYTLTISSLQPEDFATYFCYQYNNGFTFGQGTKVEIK
Kd: 0.27 nM

Continue with the binder presented below.
Give Kd for the following binder: h15C8.L1H8 (antibody, V domains shown, VH: F91Y against h15C8.L1H1; FR/HVR pieces) VH: EVQLVQSGAEVKKPGASVKVSCKASGYTFTEHSIYWLRQAPGQRLEIIGRIDPKNGRTYFVDKFKNRATLTTDTSASTAYMELSSLRSEDTAVYYCARIDGFYFDFWGQGTLVTVSS VL: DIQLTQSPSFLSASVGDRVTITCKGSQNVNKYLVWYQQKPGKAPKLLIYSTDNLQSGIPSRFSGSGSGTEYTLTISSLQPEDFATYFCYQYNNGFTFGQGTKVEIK
0.61 nM
